# TARGET OR TEST SYSTEM: T1, human MSLN-FL-his protein (human, UniProt Q13421 296-580)
# T1 construct: made in HEK293E cells, purified on nickel column; also called hMSLN-FL-his; human MSLN full-length protein; not shown: His tag
# T1 sequence (Q13421 other isoform, or with tags, fused parts or gaps): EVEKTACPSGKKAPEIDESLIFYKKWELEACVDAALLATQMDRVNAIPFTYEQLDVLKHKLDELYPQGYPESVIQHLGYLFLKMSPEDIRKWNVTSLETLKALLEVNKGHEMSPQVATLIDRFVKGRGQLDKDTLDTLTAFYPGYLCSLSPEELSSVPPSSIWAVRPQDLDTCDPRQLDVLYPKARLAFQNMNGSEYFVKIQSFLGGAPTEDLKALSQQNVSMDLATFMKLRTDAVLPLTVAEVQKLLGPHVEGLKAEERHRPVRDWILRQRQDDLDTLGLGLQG
# PROCEDURE TEXT: competitive ELISA; coated 2ug/ml F3.45.21
REPORTED ENDPOINT: competition rate (%)
Number only, in %; omit the unit.

Exercise: Returns the measured competition rate for the input binder. Input: S009-F3.74.20 (antibody, human IgG1, kappa, V domains shown, human-murine chimeric antibody, human IgG1/kappa constant regions) VH: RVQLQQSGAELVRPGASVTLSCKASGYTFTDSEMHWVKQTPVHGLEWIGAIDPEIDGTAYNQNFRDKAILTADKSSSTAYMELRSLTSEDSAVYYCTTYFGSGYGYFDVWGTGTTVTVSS VL: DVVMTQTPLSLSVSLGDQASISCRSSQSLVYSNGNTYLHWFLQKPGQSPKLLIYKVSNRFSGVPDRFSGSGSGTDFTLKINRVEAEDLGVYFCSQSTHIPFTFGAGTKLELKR
Solution: 94

Exercise: Need competition rate, item S009-F3.80.22 (antibody, human IgG1, kappa, V domains shown, human-murine chimeric antibody, human IgG1/kappa constant regions) VH: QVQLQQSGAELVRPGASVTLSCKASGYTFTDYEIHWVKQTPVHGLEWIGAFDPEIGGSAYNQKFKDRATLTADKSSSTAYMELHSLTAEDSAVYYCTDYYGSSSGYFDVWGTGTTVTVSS VL: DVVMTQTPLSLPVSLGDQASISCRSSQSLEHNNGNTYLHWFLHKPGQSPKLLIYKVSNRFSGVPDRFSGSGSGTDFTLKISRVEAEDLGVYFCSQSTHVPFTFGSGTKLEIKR
Solution: -67

Exercise: Please give the measured competition rate for this binder: S009-F4-127.10 (antibody, human IgG1, kappa, V domains shown, human-murine chimeric antibody, human IgG1/kappa constant regions) VH: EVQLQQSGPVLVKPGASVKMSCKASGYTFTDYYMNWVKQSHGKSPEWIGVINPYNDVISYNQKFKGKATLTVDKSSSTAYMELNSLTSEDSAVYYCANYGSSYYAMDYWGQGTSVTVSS VL: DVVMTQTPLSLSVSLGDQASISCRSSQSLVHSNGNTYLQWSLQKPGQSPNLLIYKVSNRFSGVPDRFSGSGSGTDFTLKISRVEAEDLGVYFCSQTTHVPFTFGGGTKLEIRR
Solution: 84

Exercise: Fill in: competition rate of S009-F3.45.21 (antibody, human IgG1, kappa, V domains shown, human-murine chimeric antibody, human IgG1/kappa constant regions) VH: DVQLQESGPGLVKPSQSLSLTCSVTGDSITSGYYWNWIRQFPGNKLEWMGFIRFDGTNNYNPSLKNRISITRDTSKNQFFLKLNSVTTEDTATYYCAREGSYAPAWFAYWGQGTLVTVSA VL: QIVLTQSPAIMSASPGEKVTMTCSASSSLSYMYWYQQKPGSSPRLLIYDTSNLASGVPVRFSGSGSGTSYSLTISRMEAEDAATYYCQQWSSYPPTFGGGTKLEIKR is ___
Solution: 92

Numbers sourced from patent US20250250357A1.
